# Subject Of Test: GSPT1 (Homo sapiens, UniProt P15170+Q96SW2)
# Sequence (P15170 whole entry): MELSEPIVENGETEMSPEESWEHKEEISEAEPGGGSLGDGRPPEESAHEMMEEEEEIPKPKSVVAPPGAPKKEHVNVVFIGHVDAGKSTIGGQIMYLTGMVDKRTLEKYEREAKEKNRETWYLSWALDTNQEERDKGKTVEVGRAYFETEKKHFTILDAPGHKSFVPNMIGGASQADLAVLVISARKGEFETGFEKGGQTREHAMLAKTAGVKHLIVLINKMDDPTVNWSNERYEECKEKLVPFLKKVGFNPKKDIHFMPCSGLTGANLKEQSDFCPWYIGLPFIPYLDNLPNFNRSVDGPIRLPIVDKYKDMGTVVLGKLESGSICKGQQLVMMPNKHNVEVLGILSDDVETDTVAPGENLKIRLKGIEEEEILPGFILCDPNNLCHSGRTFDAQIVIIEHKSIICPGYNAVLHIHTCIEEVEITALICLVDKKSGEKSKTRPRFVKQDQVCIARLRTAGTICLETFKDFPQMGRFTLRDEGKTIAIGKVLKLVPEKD
# Sequence (Q96SW2 whole entry): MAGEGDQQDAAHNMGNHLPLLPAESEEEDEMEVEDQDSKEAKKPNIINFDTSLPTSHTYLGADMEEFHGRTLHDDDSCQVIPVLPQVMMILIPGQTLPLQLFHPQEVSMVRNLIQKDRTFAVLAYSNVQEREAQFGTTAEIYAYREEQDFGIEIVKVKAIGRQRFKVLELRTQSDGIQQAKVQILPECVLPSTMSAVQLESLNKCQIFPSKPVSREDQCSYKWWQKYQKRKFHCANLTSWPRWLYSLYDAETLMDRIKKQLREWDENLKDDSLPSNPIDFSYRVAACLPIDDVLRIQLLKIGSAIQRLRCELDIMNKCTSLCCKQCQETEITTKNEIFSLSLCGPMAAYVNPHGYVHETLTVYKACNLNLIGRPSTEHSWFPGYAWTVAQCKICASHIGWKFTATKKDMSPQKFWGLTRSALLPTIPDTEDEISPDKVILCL
# Sequence (Q16531 2-1140 partner limits assumed): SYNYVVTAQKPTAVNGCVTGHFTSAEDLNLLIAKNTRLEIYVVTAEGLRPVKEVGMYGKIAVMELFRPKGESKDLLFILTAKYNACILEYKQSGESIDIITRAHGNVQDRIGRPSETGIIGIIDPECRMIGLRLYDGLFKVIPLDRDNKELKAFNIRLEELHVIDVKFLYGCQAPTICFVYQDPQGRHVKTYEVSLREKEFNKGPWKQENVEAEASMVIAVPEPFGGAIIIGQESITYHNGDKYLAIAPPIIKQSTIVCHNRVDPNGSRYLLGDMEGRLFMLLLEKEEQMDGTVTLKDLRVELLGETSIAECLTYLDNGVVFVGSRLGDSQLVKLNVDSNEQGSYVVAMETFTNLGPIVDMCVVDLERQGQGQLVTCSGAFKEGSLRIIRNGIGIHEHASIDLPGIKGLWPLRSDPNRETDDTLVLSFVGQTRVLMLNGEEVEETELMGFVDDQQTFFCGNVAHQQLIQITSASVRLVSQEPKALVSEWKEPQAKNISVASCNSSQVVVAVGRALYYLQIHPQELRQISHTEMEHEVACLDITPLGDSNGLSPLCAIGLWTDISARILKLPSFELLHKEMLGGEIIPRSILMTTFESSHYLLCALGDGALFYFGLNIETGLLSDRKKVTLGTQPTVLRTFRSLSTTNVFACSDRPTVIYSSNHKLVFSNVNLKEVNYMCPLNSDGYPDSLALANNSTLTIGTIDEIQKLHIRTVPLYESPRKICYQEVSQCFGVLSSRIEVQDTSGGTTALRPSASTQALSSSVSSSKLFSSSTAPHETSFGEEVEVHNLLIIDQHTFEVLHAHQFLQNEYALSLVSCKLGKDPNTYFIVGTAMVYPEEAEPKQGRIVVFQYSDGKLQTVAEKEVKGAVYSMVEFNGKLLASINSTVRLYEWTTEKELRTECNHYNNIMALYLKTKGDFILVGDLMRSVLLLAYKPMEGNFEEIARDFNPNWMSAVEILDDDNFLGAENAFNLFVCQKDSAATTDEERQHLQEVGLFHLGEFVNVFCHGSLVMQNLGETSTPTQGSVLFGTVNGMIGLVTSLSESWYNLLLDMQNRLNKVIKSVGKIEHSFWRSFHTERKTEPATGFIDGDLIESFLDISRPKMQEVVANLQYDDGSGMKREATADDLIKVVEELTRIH
# Assay Details: HiBiT degradation assay, 293T.114 cells, GSPT1
# Type: cell-based
# Reported Conditions: read-out: HiBiT-Degradation 293T.114 GSPT1 6 hours Emax; 293T.114 cells, 6 hours
Attribute Measured: Emax

Input: Give recorded Emax. CC1(n2cc(Cc3ccc4c5c(cccc35)C(=O)N4C3CCC(=O)NC3=O)cn2)CCN(c2ncccc2F)CC1 (centres unmarked) [Compound 208]
Output: 60 to 95%

Now look at this entry.
Input: Give recorded Emax. O=C1CCC(N2C(=O)c3ccc(CN4CC(Oc5ccccc5)C4)c4cccc2c34)C(=O)N1 (centres unmarked) [Compound 158]
Output: < 45%
